Data credit: ChEMBL document CHEMBL1131622

Target of assay: Polyunsaturated fatty acid 5-lipoxygenase (Rattus norvegicus)
Sequence (P12527 whole entry): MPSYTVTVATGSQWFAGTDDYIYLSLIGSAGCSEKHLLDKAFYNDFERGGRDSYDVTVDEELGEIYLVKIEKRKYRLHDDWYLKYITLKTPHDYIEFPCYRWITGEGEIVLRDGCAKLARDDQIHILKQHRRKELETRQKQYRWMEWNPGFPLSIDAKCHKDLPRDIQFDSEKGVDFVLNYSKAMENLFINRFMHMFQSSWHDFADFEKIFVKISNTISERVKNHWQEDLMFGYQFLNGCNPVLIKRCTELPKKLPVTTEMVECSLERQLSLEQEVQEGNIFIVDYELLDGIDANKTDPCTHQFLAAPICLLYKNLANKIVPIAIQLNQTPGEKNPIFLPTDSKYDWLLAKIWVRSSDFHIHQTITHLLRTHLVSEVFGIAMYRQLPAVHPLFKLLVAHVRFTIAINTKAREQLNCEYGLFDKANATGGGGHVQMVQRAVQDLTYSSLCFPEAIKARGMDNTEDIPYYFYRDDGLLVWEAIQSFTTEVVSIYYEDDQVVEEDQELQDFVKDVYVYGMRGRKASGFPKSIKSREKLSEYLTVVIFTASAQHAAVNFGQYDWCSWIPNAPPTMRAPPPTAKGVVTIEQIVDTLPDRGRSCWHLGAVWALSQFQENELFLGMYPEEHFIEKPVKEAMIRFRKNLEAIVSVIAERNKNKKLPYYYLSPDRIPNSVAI
Assay procedure: 5-lipoxygenase inhibitory activity determined by measuring the conversion of [14C]arachidonic acid to leukotrienes in RBL-2H3 cell using thin-layer chromatography.
Assay type: cell-based
Readout label: pIC50
Numbers only, as −log10 of the molar value.

Q. Check the records and state pIC50 for CCCCN(O)C(=O)Nc1cc([C@@H]2CC[C@@H](c3cc(OC)c(OC)c(OC)c3)O2)cc(OC)c1OCCSc1ccc(Cl)cc1 (racemic)
A. 7.24

---

System: Mus musculus
Assay procedure: In vivo inhibition against PAF induced hemoconcentration in mice at a concentration of 3 mg/kg
Assay type: functional
Readout label: inhibition in vivo at 3 mg/kg
Give me the value, and tack the unit on after it.

Field: example entries. Status: answers known.
                                   molecule                  readout_label  recorded_result
0  CCCCN(O)C(=O)Nc1cc([C@@H]2CC[C@@H](c3cc(OC)c(OC)c(OC)c3)O2)cc(OC)c1OCCS(=O)(=O)c1ccc(Br)cc1 (racemic)  inhibition in vivo at 3 mg/kg              29%
1  CCCCN(O)C(=O)Nc1cc([C@@H]2CC[C@@H](c3cc(OC)c(OC)c(OC)c3)O2)cc(OC)c1OCCSc1ccc(Cl)cc1 (racemic)  inhibition in vivo at 3 mg/kg              43%
2  CCCCN(O)C(=O)Nc1cc([C@@H]2CC[C@@H](c3cc(OC)c(OC)c(OC)c3)O2)cc(OC)c1OCCSc1ccc(Cl)c(Cl)c1 (racemic)  inhibition in vivo at 3 mg/kg              26%

Would you kindly look at the next entry?
Q. Check the records and state inhibition in vivo at 3 mg/kg for CCCCN(O)C(=O)Nc1cc([C@@H]2CC[C@@H](c3cc(OC)c(OC)c(OC)c3)O2)cc(OC)c1OCCSc1cccc(Br)c1 (racemic)
A. 28%

---

Target of assay: Polyunsaturated fatty acid 5-lipoxygenase (Rattus norvegicus)
Assay procedure: Inhibition of 5-lipoxygenase mediated conversion of [14C]arachidonic acid to leukotrienes in RBL-2H3 cells
Assay type: cell-based
Please respond with reported IC50 for every item in the list.

Field: example entries. Status: answers known.
>>> df
                                   compound                           target_of_assay  recorded_result
0  CCCCN(O)C(=O)Nc1cc([C@@H]2CC[C@@H](c3cc(OC)c(OC)c(OC)c3)O2)cc(OC)c1OCCS(=O)(=O)c1ccccc1Br (racemic)  Polyunsaturated fatty acid 5-lipoxygenase (Rattus norvegicus)           161 nM
1  COc1cc([C@@H]2CC[C@@H](c3cc(OC)c(OC)c(OC)c3)O2)cc(CNC(=O)N(C)O)c1OCCSc1ccc(Cl)cc1 (racemic)  Polyunsaturated fatty acid 5-lipoxygenase (Rattus norvegicus)           100 nM
2  CCCCN(O)C(=O)Nc1cc([C@@H]2CC[C@@H](c3cc(OC)c(OC)c(OC)c3)O2)cc(OC)c1OCCSc1c(F)c(F)cc(F)c1F (racemic)  Polyunsaturated fatty acid 5-lipoxygenase (Rattus norvegicus)           118 nM
3  CCCCN(O)C(=O)Nc1cc([C@@H]2CC[C@@H](c3cc(OC)c(OC)c(OC)c3)O2)cc(OC)c1OCCSc1ccccc1Br (racemic)  Polyunsaturated fatty acid 5-lipoxygenase (Rattus norvegicus)            33 nM
4  CCCCN(O)C(=O)Nc1cc([C@@H]2CC[C@@H](c3cc(OC)c(OC)c(OC)c3)O2)cc(OC)c1OCCSc1cccc(Br)c1 (racemic)  Polyunsaturated fatty acid 5-lipoxygenase (Rattus norvegicus)            43 nM

Would you kindly look at the next entry?
Q. Check the records and state IC50 for CCCCN(O)C(=O)Nc1cc([C@@H]2CC[C@@H](c3cc(OC)c(OC)c(OC)c3)O2)cc(OC)c1OCCSc1ccc(Cl)c(Cl)c1 (racemic)
A. 17 nM
